# ASSAY TEXT: Induction of membrane lysis in DOPC/DOPG large unilamellar vesicles model assessed as release of carboxyfluorescein at 50 ug/mL by fluorescence spectroscopic analysis relative to control
# Type: physicochemical
Numbered stars: 1 amine (or outer) side, 2 acyl side, 3 side chain; on linkers, the order of the positions; unused ones are H or OH. Square brackets hold non-standard residues; d marks the D form. Peptide text beside a SMILES is read from it. * marks the point of attachment. X1 = CCCCCCCCC[C@H](N[*:1])C(=O)[*:2]; Decanoyl = CCCCCCCCCC(=O)*
Listed next: entries and their corresponding Activity.
EXPERIMENTAL READOUT: Activity (%)

- COMPOUND: "CCCCCCCCCC(=O)NCC(=O)N[C@@H](CC(C)C)C(=O)N[C@@H](CC(C)C)C(=O)N[C@@H](CCCCN)C(=O)N[C@@H](CCCNC(=N)N)C(=O)N[C@H](C(=O)N[C@@H](CCCCN)C(=O)N[C@H](C(=O)N[C@@H](CC(C)C)C(=O)N[C@@H](CC(C)C)C(N)=O)[C@@H](C)O)[C@@H](C)CC (Decanoyl-GLLKRIKTLL-NH2)"
  VALUE UNIT: "%"
  NUMBER: 100
- COMPOUND: "CCCCCCCCC[C@H](NC(=O)[C@H](CC(C)C)NC(=O)[C@@H](NC(=O)[C@H](CCCCN)NC(=O)[C@@H](NC(=O)[C@H](CCCNC(=N)N)NC(=O)[C@H](CCCCN)NC(=O)[C@H](CC(C)C)NC(=O)[C@H](CC(C)C)NC(=O)CN)[C@@H](C)CC)[C@@H](C)O)C(N)=O (H-GLLKRIKTL[X1]-NH2)"
  VALUE UNIT: "%"
  NUMBER: 48
- COMPOUND: "CCCCCCCCC[C@H](NC(=O)CN)C(=O)N[C@@H](CC(C)C)C(=O)N[C@@H](CCCCN)C(=O)N[C@@H](CCCNC(=N)N)C(=O)N[C@H](C(=O)N[C@@H](CCCCN)C(=O)N[C@H](C(=O)N[C@@H](CC(C)C)C(=O)N[C@@H](CC(C)C)C(N)=O)[C@@H](C)O)[C@@H](C)CC (H-G[X1]LKRIKTLL-NH2)"
  VALUE UNIT: "%"
  NUMBER: 48
- COMPOUND: "CCCCCCCCC[C@H](NC(=O)[C@H](CCCNC(=N)N)NC(=O)[C@H](CCCCN)NC(=O)[C@H](CC(C)C)NC(=O)[C@H](CC(C)C)NC(=O)CN)C(=O)N[C@@H](CCCCN)C(=O)N[C@H](C(=O)N[C@@H](CC(C)C)C(=O)N[C@@H](CC(C)C)C(N)=O)[C@@H](C)O (H-GLLKR[X1]KTLL-NH2)"
  VALUE UNIT: "%"
  NUMBER: 48
